Molecular target: H^+,K^+ adenosine triphosphatase (Sus scrofa)
Construct: hog stomach was homogenized and subjected to ultracentrifugation to obtain a microsome fraction; from tissue; host or cells: hog stomach, microsome fraction (discontinuous Ficoll gradient)
Sequence (P19156 2-1034 limits assumed): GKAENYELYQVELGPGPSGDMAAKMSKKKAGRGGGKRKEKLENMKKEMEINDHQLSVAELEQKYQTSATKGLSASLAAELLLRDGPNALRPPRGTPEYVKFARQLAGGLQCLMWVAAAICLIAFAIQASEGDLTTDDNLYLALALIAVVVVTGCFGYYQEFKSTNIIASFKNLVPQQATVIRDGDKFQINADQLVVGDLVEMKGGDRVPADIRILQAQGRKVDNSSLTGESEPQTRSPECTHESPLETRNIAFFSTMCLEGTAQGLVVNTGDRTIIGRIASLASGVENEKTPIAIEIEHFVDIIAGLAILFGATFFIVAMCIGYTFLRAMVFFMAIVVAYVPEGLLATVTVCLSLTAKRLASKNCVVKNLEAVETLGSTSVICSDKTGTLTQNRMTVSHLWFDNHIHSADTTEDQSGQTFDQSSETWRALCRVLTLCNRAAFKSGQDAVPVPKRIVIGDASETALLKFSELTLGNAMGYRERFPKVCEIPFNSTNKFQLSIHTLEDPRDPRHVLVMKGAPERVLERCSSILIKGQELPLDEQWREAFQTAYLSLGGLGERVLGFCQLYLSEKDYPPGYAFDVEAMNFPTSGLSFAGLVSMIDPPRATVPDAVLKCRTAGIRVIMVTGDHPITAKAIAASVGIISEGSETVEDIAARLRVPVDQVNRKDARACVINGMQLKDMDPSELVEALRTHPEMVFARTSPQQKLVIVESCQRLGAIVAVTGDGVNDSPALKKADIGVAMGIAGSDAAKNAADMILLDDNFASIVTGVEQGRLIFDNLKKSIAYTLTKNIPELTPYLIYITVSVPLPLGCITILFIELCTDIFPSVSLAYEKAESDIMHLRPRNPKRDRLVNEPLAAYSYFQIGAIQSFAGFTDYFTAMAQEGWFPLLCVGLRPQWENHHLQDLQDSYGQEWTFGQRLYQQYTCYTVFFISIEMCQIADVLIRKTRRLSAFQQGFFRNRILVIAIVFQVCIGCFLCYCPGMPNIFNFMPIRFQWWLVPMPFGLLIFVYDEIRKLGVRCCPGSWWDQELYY
Sequence (P18434 whole entry partner): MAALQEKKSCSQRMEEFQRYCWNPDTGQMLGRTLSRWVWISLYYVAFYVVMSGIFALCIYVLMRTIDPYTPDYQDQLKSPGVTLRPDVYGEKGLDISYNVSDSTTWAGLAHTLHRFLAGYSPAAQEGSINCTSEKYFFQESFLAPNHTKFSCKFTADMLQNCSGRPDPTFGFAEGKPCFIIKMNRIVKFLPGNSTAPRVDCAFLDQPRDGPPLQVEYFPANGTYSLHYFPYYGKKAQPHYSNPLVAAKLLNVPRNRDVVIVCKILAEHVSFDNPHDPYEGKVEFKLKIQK
Assay: H+,K+ adenosine triphosphatase inhibition (proton pump inhibition)
Format: biochemical, hog
Conditions: H+,K+ ATPase fraction from hog stomach microsomes, ATP substrate, released inorganic phosphorus; read-out: Enzyme inhibition IC50 value (converted)
// values below are reported log10 IC50
Remember, log10 of IC50, in µM.

Sample answers from the record:
compound: CCOCCOC(C)(C)C#Cc1nc2ccc(Cl)cc2nc1C#CC(C)(C)OCCOCC
log10 IC50: 1.22
--
compound: CCOCCO[C@H](C#Cc1nc2ccccc2nc1C#C[C@H](CC)OCCOCC)CC
log10 IC50: 1.47
--
compound: CC[C@@H](C#Cc1nc2ccccc2nc1C#C[C@H](CC)OCCOC)OCCOC
log10 IC50: 2.09
--
compound: CSCCC#Cc1nc(C#N)c(C#N)nc1C#CCCSC
log10 IC50: -0.21
--
compound: COCCC#Cc1nc2ccccc2nc1C#CCCOC
log10 IC50: 2.45

Which log10 IC50 is reported for this compound? COC(=O)c1nc(C#CC(C)OC)c(C#CC(C)OC)nc1C(=O)OC (stereo not drawn)
0.72

Which log10 IC50 is reported for this compound? CCCCC#Cc1nc(C#N)c(C#N)nc1C#CCCCC
-0.46

Which log10 IC50 is reported for this compound? CCOC(C)C#Cc1nc2ccc(C(C)=O)cc2nc1C#CC(C)OCC (stereo not drawn)
0.99

Which log10 IC50 is reported for this compound? COC(C)(C)C#Cc1nc2ccccc2nc1C#CC(C)(C)OC
1.97
